target: HLA-A3 on HLA typed EBV-LCLs (human); test: cell-based competition on acid-treated EBV-LCLs against 150 nM fluorescent reference peptide, flow cytometry
Give measured IC50 for each item. Keep answers brief.
// return numeric value only (unit: µM, not printed)

Query KQSSKALQR [HLA-A3 binder-positive control peptide KQSSKALQR] yields IC50 of 9.4

Query VLRDDLLEAR (synthetic peptide; also called Peptide No. 18) [decameric HA-1^R peptide VLRDDLLEAR] yields IC50 of 37.5

Taken from patent US20080206268A1.
